Origin of values: the supplement of paper PMC6757056

B1: library; a variant is named by its letters at N, in order (parent)
chain: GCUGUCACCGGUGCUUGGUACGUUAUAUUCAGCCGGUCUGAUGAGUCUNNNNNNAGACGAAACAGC

Variants of: B1
Assay: FACS-Seq fitted mean relative fluorescence mCherry/BFP without ligand (log10 relative fluorescence); HEK293T overexpressing SLC46A1; higher = higher reporter protein expression
Conditions: without (6R,S)-folinic acid; ligand present: no
REPORTED PROPERTY: FACS-Seq fitted mean (log10)
Please reply with the number alone, leaving off any unit.

Before answering, review these 8 worked examples.
GAAUAA: -0.184
UGGAAG: 0.369
CGCAGC: 0.491
GCAAGA: 0.477
GGGACA: 0.123
GAGCUA: 0.516
GUUGGU: 0.346
UGUCCA: 0.433

Look up FACS-Seq fitted mean (log10) for this variant: `GGGCAU` 0.273

And then `AACAGA` , what is it? 0.344

And then `CUUGUG` , what is it? 0.147

And then `AGUCAA` , what is it? 0.156

And then `AUAGAC` , what is it? 0.459

And then `UGGACC` , what is it? 0.168

And then `GAAGUA` , what is it? 0.299

And then `UUGAGA` , what is it? 0.325

And then `UUUACC` , what is it? 0.636

And then `UAACUG` , what is it? 0.401

And then `CGGUGU` , what is it? 0.22

And then `AUGCGG` , what is it? 0.0258

And then `ACAUCA` , what is it? 0.659

And then `UUUGCA` , what is it? 0.00421
